testedOn: T1, human SLITRK6 extracellular domain linked to his tag (human, UniProt Q9H5Y7 27-608)
T1 construct: extracellular domain; also called huSLITRK6; Hu SLITRK6; not shown: his tag
test: BLI; antigen ECD-his on anti-his tips, antibody as analyte; 1:1 fit;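 also: antibody at several concentrations, 180 s association then 300 s dissociation in Tris buffer at pH 6 or 7.5, rate constants from global fitting, KD computed as koff/kon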
Provide the reported kon of each item.
Give bare numbers, in M⁻¹ s⁻¹.

For each listed entry, give its kon.
1. phA108 (antibody, V domains shown, From phage display, then full-length construction; Only the variable regions are tied to the name) VH: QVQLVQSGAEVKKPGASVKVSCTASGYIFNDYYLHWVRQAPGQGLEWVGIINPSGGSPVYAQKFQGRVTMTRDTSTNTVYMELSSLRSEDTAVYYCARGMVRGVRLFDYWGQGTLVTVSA VL: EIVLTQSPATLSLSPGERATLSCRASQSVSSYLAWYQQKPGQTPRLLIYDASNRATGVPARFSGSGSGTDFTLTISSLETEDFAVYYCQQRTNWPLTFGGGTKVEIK
2. hu14G1-03 (antibody, V domains shown) VH: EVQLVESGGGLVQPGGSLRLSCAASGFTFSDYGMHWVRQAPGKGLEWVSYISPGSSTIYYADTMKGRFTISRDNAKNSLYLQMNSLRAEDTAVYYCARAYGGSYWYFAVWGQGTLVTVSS VL: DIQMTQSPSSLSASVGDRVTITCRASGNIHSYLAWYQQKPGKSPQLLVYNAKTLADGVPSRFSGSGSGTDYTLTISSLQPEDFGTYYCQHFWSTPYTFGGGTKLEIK

Result:
1: 924000; 2: 390000

Numbers sourced from patent US20250296992A1.
